# key: entry, value: Efficacy
# testedTarget: Transient receptor potential cation channel subfamily V member 1 (Homo sapiens)
# test: Agonist activity at human recombinant TRPV1 expressed in HEK293 cells assessed as Ca2+ influx by Fluo-4 dye based assay relative to 4 uM ionomycin
# Type: cell-based
Write the number in % without appending the unit.

Please review the entries below; each comes with its answer.
>>> quantitativereadout("CCCCCCCC/C=C\\CCCCCCCCn1nnc(-c2ccc(O)c(OC)c2)n1")
24.2
>>> quantitativereadout("CCCCCCCCCn1nnc(-c2ccc(O)c(OC)c2)n1")
28.5

Now turn to the next compound.
Input CCCCCC[C@@H](O)C/C=C\CCCCCCCCn1nnc(-c2ccc(O)c(OC)c2)n1 . Output Efficacy: 21

====

# key: entry, value: IC50
# testedTarget: Transient receptor potential cation channel subfamily V member 1 (Homo sapiens, UniProt Q8NER1)
# Sequence (Q8NER1 whole entry): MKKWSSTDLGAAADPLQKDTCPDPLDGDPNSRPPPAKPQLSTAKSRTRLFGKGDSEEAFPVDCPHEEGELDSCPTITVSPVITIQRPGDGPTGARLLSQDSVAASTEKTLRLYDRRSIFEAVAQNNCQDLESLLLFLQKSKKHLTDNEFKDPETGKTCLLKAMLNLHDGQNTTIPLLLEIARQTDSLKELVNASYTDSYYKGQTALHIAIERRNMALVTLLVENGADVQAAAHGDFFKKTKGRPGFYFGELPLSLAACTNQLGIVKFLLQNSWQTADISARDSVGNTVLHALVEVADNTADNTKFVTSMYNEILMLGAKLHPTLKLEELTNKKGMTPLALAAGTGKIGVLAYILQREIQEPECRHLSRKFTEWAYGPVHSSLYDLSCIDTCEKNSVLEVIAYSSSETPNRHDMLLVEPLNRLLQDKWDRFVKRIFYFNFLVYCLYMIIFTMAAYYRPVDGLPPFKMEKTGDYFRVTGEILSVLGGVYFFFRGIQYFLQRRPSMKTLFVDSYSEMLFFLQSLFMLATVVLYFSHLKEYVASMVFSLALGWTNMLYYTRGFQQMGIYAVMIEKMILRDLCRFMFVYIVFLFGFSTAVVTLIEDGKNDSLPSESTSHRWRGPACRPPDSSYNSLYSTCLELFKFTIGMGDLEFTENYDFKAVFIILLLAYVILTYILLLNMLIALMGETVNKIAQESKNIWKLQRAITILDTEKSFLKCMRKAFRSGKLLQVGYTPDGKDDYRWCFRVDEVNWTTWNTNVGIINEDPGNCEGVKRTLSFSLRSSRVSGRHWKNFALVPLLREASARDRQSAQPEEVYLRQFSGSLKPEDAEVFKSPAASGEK
# test: Antagonist activity against human recombinant TRPV1 expressed in HEK293 cells assessed as inhibition of capsaicin-induced Ca2+ influx pre-treated 5 mins before capsaicin addition by Fluo-4 dye based assay

Please review the entries below; each comes with its answer.
>>> result("CCCCCCCCCn1nnc(-c2ccc(O)c(OC)c2)n1")
"36 µM"
>>> result("CCCCCCCC/C=C\\CCCCCCCCn1nnc(-c2ccc(O)c(OC)c2)n1")
"> 100 µM"
>>> result("CCCCCC[C@H](C/C=C\\CCCCCCCCn1nnc(-c2ccc(O)c(OC)c2)n1)OC(=O)Cc1ccccc1")
"> 100 µM"

Now turn to the next compound.
Input CCCCCC[C@@H](O)C/C=C\CCCCCCCCn1nnc(-c2ccc(O)c(OC)c2)n1 . Output IC50: 57.5 µM

====

# testedTarget: UniProtKB Q8NER1
# test: Agonist activity at human recombinant TRPV1 expressed in HEK293 cells assessed as Ca2+ influx by Fluo-4 dye based assay
# Assay type: cell-based
# testConditions: read-out: EC50
# key: entry, value: pEC50
Conceptually, pEC50 converts a concentration in mol/L into minus its log10.

Please review the entries below; each comes with its answer.
>>> quantitativereadout("CCCCCC[C@@H](O)C/C=C\\CCCCCCCCn1nnc(-c2ccc(O)c(OC)c2)n1")
4.43
>>> quantitativereadout("CCCCCCCCCn1nnc(-c2ccc(O)c(OC)c2)n1")
5.16

Now turn to the next molecule.
Input CCCCCCCC/C=C\CCCCCCCCn1nnc(-c2ccc(O)c(OC)c2)n1 . Output pEC50: 5.26

====

# testedTarget: Transient receptor potential cation channel subfamily A member 1 (Rattus norvegicus, UniProt Q6RI86)
# Sequence (Q6RI86 whole entry): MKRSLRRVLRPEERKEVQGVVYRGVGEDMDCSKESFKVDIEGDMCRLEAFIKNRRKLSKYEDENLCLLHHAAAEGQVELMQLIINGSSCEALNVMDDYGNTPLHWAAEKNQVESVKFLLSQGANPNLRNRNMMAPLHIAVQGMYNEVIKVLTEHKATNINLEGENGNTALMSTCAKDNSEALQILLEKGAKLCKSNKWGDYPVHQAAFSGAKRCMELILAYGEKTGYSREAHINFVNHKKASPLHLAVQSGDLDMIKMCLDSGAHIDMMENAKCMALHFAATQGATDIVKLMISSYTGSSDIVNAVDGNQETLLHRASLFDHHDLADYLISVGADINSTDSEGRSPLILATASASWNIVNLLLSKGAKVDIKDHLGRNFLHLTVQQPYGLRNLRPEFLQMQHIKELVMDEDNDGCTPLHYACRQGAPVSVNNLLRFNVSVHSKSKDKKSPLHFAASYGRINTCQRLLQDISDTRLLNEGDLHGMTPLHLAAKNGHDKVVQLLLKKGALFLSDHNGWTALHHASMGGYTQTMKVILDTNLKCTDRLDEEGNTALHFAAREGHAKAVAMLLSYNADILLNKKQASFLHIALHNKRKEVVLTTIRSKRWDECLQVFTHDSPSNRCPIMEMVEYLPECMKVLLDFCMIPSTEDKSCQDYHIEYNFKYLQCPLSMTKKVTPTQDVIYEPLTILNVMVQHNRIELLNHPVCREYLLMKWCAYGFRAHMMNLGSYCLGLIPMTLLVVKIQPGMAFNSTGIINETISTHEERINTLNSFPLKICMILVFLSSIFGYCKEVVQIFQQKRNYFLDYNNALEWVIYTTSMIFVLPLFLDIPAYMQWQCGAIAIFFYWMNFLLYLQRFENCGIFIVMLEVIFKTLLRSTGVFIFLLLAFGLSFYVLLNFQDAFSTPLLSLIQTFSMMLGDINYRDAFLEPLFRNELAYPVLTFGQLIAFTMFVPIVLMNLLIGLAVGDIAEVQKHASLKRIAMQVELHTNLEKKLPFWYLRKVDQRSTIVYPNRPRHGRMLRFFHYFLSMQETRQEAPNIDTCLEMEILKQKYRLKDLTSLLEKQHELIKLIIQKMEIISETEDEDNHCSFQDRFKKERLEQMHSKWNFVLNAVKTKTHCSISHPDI
# test: Agonist activity at rat recombinant TRPA1 expressed in HEK293 cells assessed as Ca2+ influx by Fluo-4 dye based assay
# Type: cell-based
# testConditions: read-out: EC50
quantityName: EC50 (µM)
Write the number in µM without appending the unit.

Please review the entries below; each comes with its answer.
>>> quantitativereadout("CCCCCCCCCn1nnc(-c2ccc(O)c(OC)c2)n1")
1.41
>>> quantitativereadout("CCCCCC[C@@H](O)C/C=C\\CCCCCCCCn1nnc(-c2ccc(O)c(OC)c2)n1")
36.7
>>> quantitativereadout("CCCCCCCC/C=C\\CCCCCCCCn1nnc(-c2ccc(O)c(OC)c2)n1")
0.83

Now turn to the next molecule.
Input CCCCCC[C@H](C/C=C\CCCCCCCCn1nnc(-c2ccc(O)c(OC)c2)n1)OC(=O)Cc1ccccc1 . Output EC50: 0.81

The values you see were collected from ChEMBL document CHEMBL3396955.
